Ki reference
target-of-assay: GABA A α5 (α5β3γ2) (Homo sapiens, UniProt P18507+P31644)
method-summary: [3H]flumazenil competition binding assay, human GABA A α5 receptors in HEK293 cells
test-context: competition for [3H]flumazenil (0.5 nM); HEK293 cells expressing human (transiently transfected) receptors; means of two determinations; read-out: hKi GABA A α5
observed-property: Ki

{"smiles-entry": "Cn1cc(NC(=O)c2ccc(OCc3c(-c4ccc(F)c(F)c4)noc3CO)nc2)cn1", "measured-value": "2.1 nM"}
{"smiles-entry": "CC[C@@H](CO)NC(=O)c1ccc(OCc2c(-c3ccc(F)c(F)c3)noc2CO)nc1", "measured-value": "1.3 nM"}
{"smiles-entry": "O=C(NC1CC1)c1ccc(OCc2c(-c3ccc(F)cc3)noc2CO)nc1", "measured-value": "1.7 nM"}
{"smiles-entry": "O=C(NCC(F)(F)C(F)(F)F)c1ccc(OCc2c(-c3ccc(F)cc3)noc2CO)nc1", "measured-value": "3.4 nM"}
{"smiles-entry": "Cn1cc(NC(=O)c2ccc(OCc3c(-c4ccc(F)cc4)noc3CO)nc2)cn1", "measured-value": "0.9 nM"}
{"smiles-entry": "CCCCc1noc(CO)c1COc1ccc(C(=O)N2CCS(=O)(=O)CC2)cn1", "measured-value": "50.5 nM"}
{"smiles-entry": "CC(C)NC(=O)c1ccc(OCc2c(-c3ccc(F)c(F)c3)noc2CO)nc1", "measured-value": "1.5 nM"}
{"smiles-entry": "COCCNC(=O)c1ccc(OCc2c(-c3ccc(F)c(F)c3)noc2CO)nc1", "measured-value": "7.7 nM"}
{"smiles-entry": "O=C(NCCO)c1ccc(OCc2c(-c3ccccc3)noc2CO)nc1", "measured-value": "1.6 nM"}

====

target-of-assay: GABA A α5 (α5β3γ2) (Homo sapiens, UniProt P18507+P31644)
method-summary: [3H]flumazenil competition binding assay, human GABA A α5 receptors in HEK293 cells
test-context: competition for [3H]flumazenil (0.5 nM); HEK293 cells expressing human (transiently transfected) receptors; means of two determinations; read-out: hKi GABA A α5
Each entry below carries its recorded Ki.
observed-property: Ki (nM)

{"compound": "O=C(NCC(F)(F)F)c1ccc(OCc2c(-c3ccc(Cl)cc3)noc2CO)nc1 [Example 21]", "observed-property": "Ki", "units-label": "nM", "measured-value": 2}
{"compound": "CC(C)NC(=O)c1ccc(OCc2c(-c3ccccc3)noc2CO)nc1 [Example 1]", "observed-property": "Ki", "units-label": "nM", "measured-value": 2.2}
{"compound": "CCCCc1noc(CO)c1COc1ccc(C(=O)N2CCC2)cn1 [Example 53]", "observed-property": "Ki", "units-label": "nM", "measured-value": 51.3}
{"compound": "O=C(NCC(F)(F)F)c1ccc(OCc2c(-c3ccc(F)c(F)c3)noc2CO)nc1 [Example 31]", "observed-property": "Ki", "units-label": "nM", "measured-value": 2.7}
{"compound": "O=C(NC1CC1)c1ccc(OCc2c(-c3ccc(Cl)cc3)noc2CO)nc1 [Example 20]", "observed-property": "Ki", "units-label": "nM", "measured-value": 1}
{"compound": "COCCNC(=O)c1ccc(OCc2c(-c3ccc(F)cc3)noc2CO)nc1 [Example 9]", "observed-property": "Ki", "units-label": "nM", "measured-value": 4.1}
{"compound": "O=C(N[C@H]1CCC[C@@H]1O)c1ccc(OCc2c(-c3ccc(Cl)cc3)noc2CO)nc1 (single isomer, unassigned) [Example 27]", "observed-property": "Ki", "units-label": "nM", "measured-value": 0.6}
{"compound": "O=C(NN1CCOCC1)c1ccc(OCc2c(-c3ccc(F)c(F)c3)noc2CO)nc1 [Example 41]", "observed-property": "Ki", "units-label": "nM", "measured-value": 1.1}
